# Target of assay: Amine oxidase [flavin-containing] B (Bos taurus, UniProt P56560)
# Sequence (P56560 whole entry): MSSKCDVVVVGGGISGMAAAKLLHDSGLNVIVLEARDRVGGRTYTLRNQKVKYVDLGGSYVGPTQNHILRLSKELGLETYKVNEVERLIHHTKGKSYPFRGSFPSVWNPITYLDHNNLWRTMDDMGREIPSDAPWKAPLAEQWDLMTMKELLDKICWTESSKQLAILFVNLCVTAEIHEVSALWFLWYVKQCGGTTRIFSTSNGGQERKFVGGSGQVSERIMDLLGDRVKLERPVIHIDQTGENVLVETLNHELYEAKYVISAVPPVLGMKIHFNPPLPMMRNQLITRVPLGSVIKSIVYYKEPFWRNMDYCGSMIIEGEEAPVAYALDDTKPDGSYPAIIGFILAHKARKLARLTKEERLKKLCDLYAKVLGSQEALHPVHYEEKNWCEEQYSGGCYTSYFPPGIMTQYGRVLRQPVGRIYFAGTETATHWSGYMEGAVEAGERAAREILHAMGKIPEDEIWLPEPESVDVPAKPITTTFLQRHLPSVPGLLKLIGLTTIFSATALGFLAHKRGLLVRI
Quantity measured: Ki
A bare number is not enough; add the unit after it.

INPUT: Read off the recorded Ki for Cc1ccc(C2=NN(C(N)=S)C(c3ccc(Cl)cc3)C2)cc1 (stereo unspecified)
OUTPUT: 1.5 nM
